# protocol details: Metabolic stability in human liver microsomes
# Type: in vitro ADME
# run parameters: human, predicted in vivo hepatic clearance
# Procedure: Metabolic stability of compounds was assessed in human and mouse liver microsomes (Corning, Tewksbury, MA, USA). […] Samples were analyzed as previously described for samples from permeability assay. The in vitro half-life (t1/2) was calculated from the slope of the linear regression by plotting ln % remaining of parent compound against incubation time. […] Predicted in vivo hepatic clearance can be expressed as %LBF and calculated as follows:(5) in vivo CLh [%LBF]=in vivo CLh/LBF×100
Decide by In Vivo CLh: equal to or exceeding 20 mL/min/kg means condition met, less means condition not met.

# example entries with known answers
>>> df
                                   molecule              class
0  Clc1ncnc2c1ncn2Cc1cn(C[c-]2cccc2)nn1.[Fe+2].c1cc[cH-]c1 [Compound 13a]  condition not met
1  Clc1ncnc2ncn(Cc3cn(C[c-]4cccc4)nn3)c12.[Fe+2].c1cc[cH-]c1 [Compound 15a]  condition not met

Is the recorded value of In Vivo CLh equal to or greater than 20 mL/min/kg for this molecule? Clc1ncnc2c1ccn2Cc1cn(-[c-]2cccc2)nn1.[Fe+2].c1cc[cH-]c1 [Compound 11c] condition met

Is the recorded value of In Vivo CLh equal to or greater than 20 mL/min/kg for this molecule? CC([c-]1cccc1)n1cc(Cn2ccc3c(Cl)ncnc32)nn1.[Fe+2].c1cc[cH-]c1 (centres unmarked) [Compound 11b] condition met

Source listed as paper PMC7180452.
